Target: human FGFR1c + KLB receptor complex on HEK293 iLite FGF21 reporter cells (human, UniProt P11362 22-822; Q86Z14 1-1044)
Sequence (P11362 22-822, chain 1 of 2): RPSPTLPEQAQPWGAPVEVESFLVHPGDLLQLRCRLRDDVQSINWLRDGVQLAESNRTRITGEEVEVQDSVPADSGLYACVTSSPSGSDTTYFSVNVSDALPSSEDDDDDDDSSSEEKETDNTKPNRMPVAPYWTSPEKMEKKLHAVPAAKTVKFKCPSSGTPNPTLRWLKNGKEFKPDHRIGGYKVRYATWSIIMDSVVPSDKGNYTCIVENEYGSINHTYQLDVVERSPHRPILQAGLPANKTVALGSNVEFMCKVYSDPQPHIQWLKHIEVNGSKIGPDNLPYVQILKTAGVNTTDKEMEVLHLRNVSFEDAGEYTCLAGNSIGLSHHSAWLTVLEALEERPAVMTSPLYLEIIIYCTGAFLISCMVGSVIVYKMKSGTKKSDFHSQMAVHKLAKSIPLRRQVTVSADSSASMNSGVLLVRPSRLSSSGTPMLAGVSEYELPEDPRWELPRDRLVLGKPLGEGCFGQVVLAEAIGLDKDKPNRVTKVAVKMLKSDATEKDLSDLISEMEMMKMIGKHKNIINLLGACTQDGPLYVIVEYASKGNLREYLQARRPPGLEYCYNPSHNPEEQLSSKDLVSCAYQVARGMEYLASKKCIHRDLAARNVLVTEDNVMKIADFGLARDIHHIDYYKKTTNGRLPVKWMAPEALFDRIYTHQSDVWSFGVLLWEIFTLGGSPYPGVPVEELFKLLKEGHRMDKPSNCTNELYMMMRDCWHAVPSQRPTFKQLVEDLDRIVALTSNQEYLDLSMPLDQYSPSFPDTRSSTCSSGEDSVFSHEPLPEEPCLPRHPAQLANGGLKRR
Sequence (Q86Z14 whole entry, chain 2 of 2): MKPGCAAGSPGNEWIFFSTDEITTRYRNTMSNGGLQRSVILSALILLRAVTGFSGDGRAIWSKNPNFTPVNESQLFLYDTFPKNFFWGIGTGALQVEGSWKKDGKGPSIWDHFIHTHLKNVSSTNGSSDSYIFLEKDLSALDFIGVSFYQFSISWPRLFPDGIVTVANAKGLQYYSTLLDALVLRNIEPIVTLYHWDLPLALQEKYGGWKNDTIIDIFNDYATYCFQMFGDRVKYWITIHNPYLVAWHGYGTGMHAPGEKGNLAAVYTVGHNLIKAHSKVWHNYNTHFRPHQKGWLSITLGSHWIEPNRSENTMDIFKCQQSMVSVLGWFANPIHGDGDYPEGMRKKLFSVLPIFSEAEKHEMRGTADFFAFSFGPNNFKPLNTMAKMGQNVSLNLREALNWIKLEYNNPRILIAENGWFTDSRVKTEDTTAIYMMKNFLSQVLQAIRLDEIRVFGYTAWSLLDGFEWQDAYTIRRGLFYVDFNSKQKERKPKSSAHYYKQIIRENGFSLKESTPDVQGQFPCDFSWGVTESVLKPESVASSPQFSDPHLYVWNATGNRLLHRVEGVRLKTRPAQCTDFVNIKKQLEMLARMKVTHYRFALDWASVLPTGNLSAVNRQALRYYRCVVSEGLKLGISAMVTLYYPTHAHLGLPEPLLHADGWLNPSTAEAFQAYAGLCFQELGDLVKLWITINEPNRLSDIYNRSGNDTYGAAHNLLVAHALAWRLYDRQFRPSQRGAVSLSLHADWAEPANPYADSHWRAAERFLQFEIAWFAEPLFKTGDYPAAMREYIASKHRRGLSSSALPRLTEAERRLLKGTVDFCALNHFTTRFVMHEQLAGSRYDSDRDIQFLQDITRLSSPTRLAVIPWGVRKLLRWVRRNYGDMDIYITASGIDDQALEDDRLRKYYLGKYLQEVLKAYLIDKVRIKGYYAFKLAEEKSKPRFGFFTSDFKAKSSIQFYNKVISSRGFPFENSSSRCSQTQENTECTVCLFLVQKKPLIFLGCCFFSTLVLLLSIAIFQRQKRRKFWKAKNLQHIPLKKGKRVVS
Assay: cell-based or functional assay
Assignment: determine reported Emax for the given binders.
One number for each entry, in %.

Sample records with Emax:
Ab0364 (antibody, IgG4, V domains shown, IgG4 PE) VH: QVTLKESGPVLVKPTETLTLTCTVSGFSLNNARVGVSWIRQPPGKALEWLAHIFSNDEKSYSTSLKSRLTISKDTSKSQVVLTMTNMDPVDTATYYCARSVVTGGYYYEGMDVWGQGTTVTVSS VL: SYVLTQPPSVSVAPGQTARITCGGANIGSESVHWYQQKPGQAPVLVVYEESDRPSGIPERFSGSNSGNTATLTISRVEAGDEADYYCQVWEGSSDHVVFGGGTKLTVLG :: 991
Ab0299 (antibody, IgG4, V domains shown) VH: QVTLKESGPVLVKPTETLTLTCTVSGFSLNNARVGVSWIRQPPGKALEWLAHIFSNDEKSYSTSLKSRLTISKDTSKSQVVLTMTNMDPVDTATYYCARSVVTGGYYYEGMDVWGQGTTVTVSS VL: SYVLTQPPSVSVAPGQTARITCGGSNIGSESVHWYQQKPGQAPVLVVYDDSDRPSGIPERFSGSNSGNTATLTISRVEAGDEADYYCQVWTGNSDHVVFGGGTKLTVLG :: 1240

Consider the record given below.
Per the record, Ab0342 (antibody, IgG4, V domains shown) VH: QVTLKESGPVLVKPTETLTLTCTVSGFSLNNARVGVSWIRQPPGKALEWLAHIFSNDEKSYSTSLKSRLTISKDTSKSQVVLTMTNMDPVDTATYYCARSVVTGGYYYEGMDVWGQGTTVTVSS VL: SYVLTQPPSVSVAPGQTARITCGGSNIGSESVHWYQQKPGQAPVLVVYAASDRPSGIPERFSGSNSGNTATLTISRVEAGDEADYYCQVWAGESDHVVFGGGTKLTVLG has Emax of 775
